- Species: Canis familiaris
- assay-remarks: Concentration which caused a 20% increase in AP95 was determined.
- Assay type: functional, Canis lupus familiaris
metric-name: C20 APD95 (µM)

> print(dat)
                                    compound  measurement.units  measured.value
 1  CCN(CC)CCNC(=O)c1ccc(-c2ncc[nH]2)cc1.Cl.Cl                 µM              65
 2  O=C(NC1CCN(Cc2ccccc2)CC1)c1ccc(-n2ccnc2)cc1                 µM             0.7
 3  CN1CCN(C(=O)c2ccc(-n3ccnc3)cc2)CC1.Cl.Cl                 µM             3.7
 4   CCN(CC)CCNC(=O)c1cccc(-n2ccnc2)c1.Cl.Cl                 µM               4
 5  CCN1CCCC1CNC(=O)c1ccc(-n2ccnc2)cc1.Cc1ccc(S(=O)(=O)O)cc1 (stereo not given)                 µM               3
 6  CCN(CC)CCN(Cc1ccccc1)C(=O)c1ccc(-n2ccnc2)cc1                 µM             0.5
 7  CCN(CC)[C@H]1CCCCC1NC(=O)c1ccc(-n2ccnc2)cc1.Cl (stereo not given in full)                 µM             1.2
 8   Cl.O=C(NCCNCc1ccccc1)c1ccc(-n2ccnc2)cc1                 µM             1.2
 9  CCN(CC)CCNC(=O)c1ccc(NS(C)(=O)=O)cc1.Cl [SEMATILIDE HYDROCHLORIDE]                 µM             4.4
10    CN1CCN(S(=O)(=O)c2ccc(-n3ccnc3)cc2)CC1                 µM              39
11           O=C(c1ccc(-n2ccnc2)cc1)N1CCNCC1                 µM            10.5
12   CCN(CC)CCNC(=O)c1ccc(-n2ccnc2)cc1.Cl.Cl                 µM             2.9
13  CS(=O)(=O)O.O=C(c1ccc(-n2ccnc2)cc1)N1CCN(Cc2ccccc2)CC1                 µM             0.9
14  CCN(CC)CCN(C(=O)c1ccc(-n2ccnc2)cc1)c1cccc2ccccc12                 µM             0.4
15  CCN(CC)CCCNC(=O)c1ccc(-n2ccnc2)cc1.Cl.Cl                 µM               3

###

- Species on record: Canis familiaris
- assay-remarks: Maximum observed percent change in action potential duration (APD) at 95% repolarization at 30 uM using standard microelectrode technique in isolated canine cardiac Purkinje fibers
- Format: functional, Canis lupus familiaris, Purkinje fiber
Listing of recorded Max delta APD95 by entry.
metric-name: Max delta APD95 (%)

> print(dat)
                                     smiles      metric.name  measurement.units  measured.value
1   CCN(CC)CCNC(=O)c1cccc(-n2ccnc2)c1.Cl.Cl  Max delta APD95                  %              60
2   CCN(CC)CCNC(=O)c1ccc(-n2ccnc2)cc1.Cl.Cl  Max delta APD95                  %            52.5
3  O=C(NC1CCN(Cc2ccccc2)CC1)c1ccc(-n2ccnc2)cc1  Max delta APD95                  %              97
4           O=C(c1ccc(-n2ccnc2)cc1)N1CCNCC1  Max delta APD95                  %              28
5  CCN(CC)CCCNC(=O)c1ccc(-n2ccnc2)cc1.Cl.Cl  Max delta APD95                  %              48

###

- Organism: Canis familiaris
- assay-remarks: Maximum observed percent change in action potential duration (APD) at 95% repolarization at 100 uM using standard microelectrode technique in isolated canine cardiac Purkinje fibers
- Format: functional, Canis lupus familiaris, Purkinje fiber
Returns one of 1 (yes) or 0 (no); 1 (yes) when Max delta APD95 is >= 60%.

> print(dat)
                                   compound  discrete.label
1            Cl.NCCNC(=O)c1ccc(-n2ccnc2)cc1          0 (no)
2  CCN1CCCC1CNC(=O)c1ccc(-n2ccnc2)cc1.Cc1ccc(S(=O)(=O)O)cc1 (stereo not drawn)         1 (yes)
3  CCN(CC)CCNC(=O)c1ccc(-n2ccnc2C)cc1.CS(=O)(=O)O          0 (no)
4  CCN(CC)CCNC(=O)c1ccc(-c2ncc[nH]2)cc1.Cl.Cl          0 (no)
5  CCN(CC)CCNC(=O)c1ccc(NS(C)(=O)=O)cc1.Cl [SEMATILIDE HYDROCHLORIDE]         1 (yes)
6   CCN(CC)CCNC(=O)c1ccc(-n2ccnc2)cc1.Cl.Cl          0 (no)
7  CCN(CC)[C@H]1CCCCC1NC(=O)c1ccc(-n2ccnc2)cc1.Cl (stereo partly drawn)         1 (yes)
